What koff was measured for each of the following?
- Target Or System: T1, human IL-33 (R&D Systems, #3625-IL-010/CF) (human, UniProt O95760 112-270)
- T1 construct: Commercial recombinant protein; also called hIL-33; interleukin-33
- T1 sequence (looked up): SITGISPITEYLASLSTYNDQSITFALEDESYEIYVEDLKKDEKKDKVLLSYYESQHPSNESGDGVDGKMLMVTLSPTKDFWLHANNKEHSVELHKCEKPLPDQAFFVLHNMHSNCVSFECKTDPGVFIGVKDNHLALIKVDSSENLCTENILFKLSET
- Experiment: SPR 37C pH7.4, mAb captured
Dear colleague, please return just the value in s⁻¹, with no unit written.

Recorded result, H4H9664P (antibody, human IgG4, V domains shown, Human IgG4 Fc (H4H)) VH: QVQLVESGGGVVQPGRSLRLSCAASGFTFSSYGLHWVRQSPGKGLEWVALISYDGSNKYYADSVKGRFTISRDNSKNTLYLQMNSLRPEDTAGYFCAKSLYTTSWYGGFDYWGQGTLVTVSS VL: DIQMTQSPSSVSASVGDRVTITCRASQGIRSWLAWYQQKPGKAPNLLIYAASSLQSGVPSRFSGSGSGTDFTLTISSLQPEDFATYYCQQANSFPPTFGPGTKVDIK , koff: 0.000721

Recorded result, H4H9662P (antibody, V domains shown, Human IgG4 Fc (H4H)) VH: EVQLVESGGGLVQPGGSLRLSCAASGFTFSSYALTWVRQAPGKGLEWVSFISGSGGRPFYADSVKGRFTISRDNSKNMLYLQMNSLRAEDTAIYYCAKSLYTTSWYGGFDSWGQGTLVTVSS VL: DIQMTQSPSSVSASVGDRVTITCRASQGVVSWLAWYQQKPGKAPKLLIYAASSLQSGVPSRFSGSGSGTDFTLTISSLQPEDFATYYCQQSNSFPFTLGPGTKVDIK , koff: 0.00062

Recorded result, H4H9629P (antibody, human IgG4, V domains shown, Human IgG4 Fc (H4H)) VH: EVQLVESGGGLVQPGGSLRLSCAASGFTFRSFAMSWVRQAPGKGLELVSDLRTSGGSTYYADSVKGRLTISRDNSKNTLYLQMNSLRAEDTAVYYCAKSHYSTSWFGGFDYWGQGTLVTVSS VL: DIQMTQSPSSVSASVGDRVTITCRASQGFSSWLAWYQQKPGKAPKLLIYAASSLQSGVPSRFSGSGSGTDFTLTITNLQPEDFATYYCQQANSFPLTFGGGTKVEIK , koff: 0.000646

Recorded result, H4H9633P (antibody, human IgG4, V domains shown, Human IgG4 Fc (H4H)) VH: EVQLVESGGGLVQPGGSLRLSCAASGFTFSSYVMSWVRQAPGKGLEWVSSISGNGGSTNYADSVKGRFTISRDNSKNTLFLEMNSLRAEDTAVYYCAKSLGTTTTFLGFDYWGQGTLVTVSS VL: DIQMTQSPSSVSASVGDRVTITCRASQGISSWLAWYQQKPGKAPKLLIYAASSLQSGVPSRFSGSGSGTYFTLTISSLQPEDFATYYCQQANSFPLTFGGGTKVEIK , koff: 0.000689

Recorded result, H1M9568N (antibody, mouse IgG1, V domains shown, Human variable domains, mouse IgG1 Fc (H1M)) VH: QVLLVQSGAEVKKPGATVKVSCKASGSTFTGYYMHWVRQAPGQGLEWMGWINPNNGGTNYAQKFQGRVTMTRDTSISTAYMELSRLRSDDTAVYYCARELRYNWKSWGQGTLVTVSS VL: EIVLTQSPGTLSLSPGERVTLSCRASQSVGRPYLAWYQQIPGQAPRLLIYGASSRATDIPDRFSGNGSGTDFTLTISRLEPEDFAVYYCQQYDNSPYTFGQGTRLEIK , koff: 0.000961
